Reference source: the supplement of paper PMC4862054

- System: CAL-148
- measurementDescription: normalised viability (% of control), CellTiter-Blue; higher = more viable cells (about 100 = DMSO control)
- assayContext: incubation time: 72 h
measurementLabel: normalised viability (%)
Give bare numbers, in %.

A selection of reference data follows.
* Cn1c(Nc2ccc(C(F)(F)F)cc2)nc2cc(Oc3ccnc(-c4ncc(C(F)(F)F)[nH]4)c3)ccc21 [RAF265] (300 nM) | 85.5
* O=P1(NCCCl)OCCCN1CCCl (centres undefined) [Ifosfamide] (3000 nM) | 106
* CN[C@@H]1C[C@H]2O[C@@](C)([C@@H]1OC)n1c3ccccc3c3c4c(c5c6ccccc6n2c5c31)C(=O)N[C@H]4O [UCN-01] (3000 nM) | 41.7

# context switch: different compound, same normalised viability
## Task Returns the measured normalised viability for the input compound. Input: CCN(CCCOc1ccc2c(Nc3cc(CC(=O)Nc4cccc(F)c4)[nH]n3)ncnc2c1)CCOP(=O)(O)O [Barasertib] (300 nM)
## Result 22.6
